System: Plasmodium berghei
PROTOCOL: Screen against P. berghei liver stage (PbLuc), transformed with Luciferase, at 10uM
Assay type: functional, HepG2
EXPERIMENTAL_SETUP: tested at 10 uM
About 8,600 (12%) of roughly 69,000 compounds showed an effect of 50% or more. Shown is part of a subset that was picked to be rich in strong results.
ENDPOINT_LABEL: INHIBITION

Here's what some known entries look like.
>>> readout_value("c1ccc(CO[C@H]2CC[C@H]3[C@H]2OCCN3Cc2nccs2)nc1")
"22.2%"
>>> readout_value("CC(=O)N1CCCC1C(=O)NCCOc1ccc(C(C)C)cc1 (stereo not given)")
"29.4%"
>>> readout_value("Cn1ccnc1C(=O)N1CCOC(Cc2ccc(Cl)cc2)C1 (stereo not given)")
"47.2%"
>>> readout_value("c1cc(CO[C@@H]2CC[C@H]3[C@H]2OCCN3CC2CCOCC2)ccn1")
"68.8%"
>>> readout_value("Cc1cccc(CN2CCO[C@H]3[C@@H](OCc4ccncc4)CC[C@@H]32)n1")
"85.6%"

Value of measured INHIBITION for the entry `CNC(=O)[C@H]1C[C@@H]2CN(S(=O)(=O)c3ccc(OC)cc3)C[C@@H]2N1C` : 46.6%

Just so you know, measured INHIBITION for `Cc1cccc(CO[C@@H]2CC[C@H]3[C@H]2OCCN3Cc2nccs2)n1` came out at -44.2%

Kindly note the recorded INHIBITION for `c1cc(CO[C@H]2CC[C@H]3[C@H]2OCCN3Cc2nccs2)ccn1` , which is 84.7%

The recorded INHIBITION for `O=C(C1CCOCC1)N1CCO[C@H]2[C@@H](OCc3ccncc3)CC[C@@H]21` is 43.3%

The reported INHIBITION of the molecule `O=C(C1CCOCC1)N1CCO[C@H]2[C@H](OCc3ccncc3)CC[C@@H]21` was 14.1%

###

Tested on: Plasmodium berghei
PROTOCOL: Screen against P. berghei liver stage (PbLuc), transformed with Luciferase, at 10uM
Assay type: functional, HepG2
EXPERIMENTAL_SETUP: tested at 10 uM
Out of some 69,000 compounds screened, about 8,600 (12%) showed an effect of 50% or more. Only a selection was taken, and strong results are over-represented in it overall.
Overview of reported INHIBITION across a group of molecules:
Numbers only here, please. The scale is %.

Recorded INHIBITION, per entry:
>>> readout_value("Cc1cnn(CC2CN(c3cnc4ccccc4n3)CCO2)c1 (stereo not given)")
16.2
>>> readout_value("O=C1OCC(CO)N1Cc1cccc(Cl)c1F (stereo not given)")
28.7

Shift focus to the following entry.
Sample Cc1cc(NC(=O)NCC(C)N2CCOCC2)n(C)n1 (stereo not given) ; INHIBITION observed: -17

###

Test system: Plasmodium berghei
PROTOCOL: Screen against P. berghei liver stage (PbLuc), transformed with Luciferase, at 10uM
Format: functional, HepG2
EXPERIMENTAL_SETUP: tested at 10 uM
Among all 69,000 compounds or so, about 8,600 (12%) showed an effect of 50% or more. The entries come from a sample that favours strong results as a whole.
INHIBITION values for the molecules below.
Reply with just the number (in %).

>>> readout_value("CC(=O)N1CCC2(CCCN(Cc3ccc(Cl)c(C(F)(F)F)c3)C2)C1 (stereo unspecified)")
59.7

Entry `COCCN(C)[C@@H]1c2ccccc2C2(CCNCC2)[C@H]1O` ; INHIBITION = 15.12

For this molecule ( CC(=O)N1CCCC2(CCN(Cc3ccc(Cl)c(C(F)(F)F)c3)C2)C1 (stereo unspecified) ), measured INHIBITION is -18.5

Measured INHIBITION, CC(=O)N1CCCC2(CCN(Cc3ccc(Cl)c(F)c3)C2)C1 (stereo unspecified) : 13.7

Item: `CCCc1nnc(SCc2cc(=O)n3c4c(sc3n2)CCCC4)[nH]1` | INHIBITION: -4.35

Looking up `CC(=O)N1CCC2(CCN(Cc3ccc(Cl)c(C(F)(F)F)c3)CC2)C1` , I found its INHIBITION recorded as 73
